system: M249-AR (M249-R4) melanoma cell line; test: Anti-proliferative effect of miRNA mimics, MTS assay; format: cell-based; conditions: 30 nM mimic, 72 hours after transfection
Answer each item with its documented M249-AR % Viability 30 nM.
Give the quantity in %, number only.

Query (substance): hsa-miR-200c-5p: mature miRNA mimic, SEQ ID NO 9 CGUCUUACCCAGCAGUGUUUGG (listed as RNA, chemistry not given here) ; field requested: M249-AR % Viability 30 nM
58

Also check hsa-miR-10b-3p: mature miRNA mimic, SEQ ID NO 2 ACAGAUUCGAUUCUAGGGGAAU (listed as RNA, chemistry not given here)
86

Also check hsa-miR-518b: mature miRNA mimic, SEQ ID NO 5 CAAAGCGCUCCCCUUUAGAGGU (listed as RNA, chemistry not given here)
53

Also check hsa-miR-182-3p: mature miRNA mimic, SEQ ID NO 10 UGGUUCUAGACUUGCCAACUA (listed as RNA, chemistry not given here)
83

Also check hsa-miR-96-5p: mature miRNA mimic, SEQ ID NO 3 UUUGGCACUAGCACAUUUUUGCU (listed as RNA, chemistry not given here)
82

Also check hsa-miR-7-5p: mature miRNA mimic, SEQ ID NO 1 UGGAAGACUAGUGAUUUUGUUGU (listed as RNA, chemistry not given here)
67

----------
system: A2058 melanoma cell line; test: Anti-proliferative effect of miRNA mimics, MTS assay; type: cell-based; details: 10 nM mimic, 72 hours after transfection
measure.name: A2058 % Viability 10 nM (%)
Give the quantity in %, number only.

Query (substance): hsa-miR-7-5p: mature miRNA mimic, SEQ ID NO 1 UGGAAGACUAGUGAUUUUGUUGU (listed as RNA, chemistry not given here) ; field requested: A2058 % Viability 10 nM
51

Also check hsa-miR-96-5p: mature miRNA mimic, SEQ ID NO 3 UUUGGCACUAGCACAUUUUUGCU (listed as RNA, chemistry not given here)
33

Also check hsa-miR-497-5p: mature miRNA mimic, SEQ ID NO 8 CAGCAGCACACUGUGGUUUGU (listed as RNA, chemistry not given here)
53

Also check hsa-miR-182-3p: mature miRNA mimic, SEQ ID NO 10 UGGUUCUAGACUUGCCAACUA (listed as RNA, chemistry not given here)
77

Also check hsa-miR-3157-5p: mature miRNA mimic, SEQ ID NO 6 UUCAGCCAGGCUAGUGCAGUCU (listed as RNA, chemistry not given here)
43

Also check hsa-miR-200c-5p: mature miRNA mimic, SEQ ID NO 9 CGUCUUACCCAGCAGUGUUUGG (listed as RNA, chemistry not given here)
37

Also check hsa-miR-10b-3p: mature miRNA mimic, SEQ ID NO 2 ACAGAUUCGAUUCUAGGGGAAU (listed as RNA, chemistry not given here)
42

Also check hsa-miR-129-5p: mature miRNA mimic, SEQ ID NO 4 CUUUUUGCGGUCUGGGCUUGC (listed as RNA, chemistry not given here)
44

Also check hsa-miR-518b: mature miRNA mimic, SEQ ID NO 5 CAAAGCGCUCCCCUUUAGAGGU (listed as RNA, chemistry not given here)
44

Also check hsa-miR-16-5p: mature miRNA mimic, SEQ ID NO 7 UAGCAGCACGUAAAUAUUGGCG (listed as RNA, chemistry not given here)
39

----------
system: RPMI-7951 melanoma cell line; assay: Anti-proliferative effect of miRNA mimics, MTS assay; type: cell-based; settings: 10 nM mimic, 72 hours after transfection
measure.name: RPMI-7951 % Viability 10 nM (%)
Give the quantity in %, number only.

Query (substance): hsa-miR-7-5p: mature miRNA mimic, SEQ ID NO 1 UGGAAGACUAGUGAUUUUGUUGU (listed as RNA, chemistry not given here) ; field requested: RPMI-7951 % Viability 10 nM
65

Also check hsa-miR-16-5p: mature miRNA mimic, SEQ ID NO 7 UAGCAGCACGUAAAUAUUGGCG (listed as RNA, chemistry not given here)
68

Also check hsa-miR-10b-3p: mature miRNA mimic, SEQ ID NO 2 ACAGAUUCGAUUCUAGGGGAAU (listed as RNA, chemistry not given here)
51

----------
test system: A375Hu melanoma cell line; assay: Anti-proliferative effect of miRNA mimics, MTS assay; assay type: cell-based, human; conditions: 10 nM mimic, 72 hours after transfection
measure.name: A375Hu % Viability 10 nM (%)
Give the quantity in %, number only.

Query (substance): hsa-miR-518b: mature miRNA mimic, SEQ ID NO 5 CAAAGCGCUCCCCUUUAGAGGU (listed as RNA, chemistry not given here) ; field requested: A375Hu % Viability 10 nM
66

Also check hsa-miR-10b-3p: mature miRNA mimic, SEQ ID NO 2 ACAGAUUCGAUUCUAGGGGAAU (listed as RNA, chemistry not given here)
71

Also check hsa-miR-96-5p: mature miRNA mimic, SEQ ID NO 3 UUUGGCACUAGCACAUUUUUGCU (listed as RNA, chemistry not given here)
73

Also check hsa-miR-16-5p: mature miRNA mimic, SEQ ID NO 7 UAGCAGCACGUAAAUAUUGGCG (listed as RNA, chemistry not given here)
62

Also check hsa-miR-7-5p: mature miRNA mimic, SEQ ID NO 1 UGGAAGACUAGUGAUUUUGUUGU (listed as RNA, chemistry not given here)
58

Also check hsa-miR-497-5p: mature miRNA mimic, SEQ ID NO 8 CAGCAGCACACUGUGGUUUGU (listed as RNA, chemistry not given here)
45

Also check hsa-miR-3157-5p: mature miRNA mimic, SEQ ID NO 6 UUCAGCCAGGCUAGUGCAGUCU (listed as RNA, chemistry not given here)
42

Also check hsa-miR-200c-5p: mature miRNA mimic, SEQ ID NO 9 CGUCUUACCCAGCAGUGUUUGG (listed as RNA, chemistry not given here)
43

Also check hsa-miR-129-5p: mature miRNA mimic, SEQ ID NO 4 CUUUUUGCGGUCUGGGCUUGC (listed as RNA, chemistry not given here)
59

----------
test system: M249 melanoma cell line; test: Anti-proliferative effect of miRNA mimics, MTS assay; format: cell-based; conditions: 5 nM mimic, 72 hours after transfection
The threshold is inclusive: M249 % Viability 5 nM of exactly 40% counts as Criterion met; values below receive Criterion not met.

Decide: is the reported value of M249 % Viability 5 nM for hsa-miR-10b-3p: mature miRNA mimic, SEQ ID NO 2 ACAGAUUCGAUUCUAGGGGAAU (listed as RNA, chemistry not given here) equal to or greater than 40%?
Criterion met

Also check hsa-miR-497-5p: mature miRNA mimic, SEQ ID NO 8 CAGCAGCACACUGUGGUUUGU (listed as RNA, chemistry not given here)
Criterion not met

Also check hsa-miR-3157-5p: mature miRNA mimic, SEQ ID NO 6 UUCAGCCAGGCUAGUGCAGUCU (listed as RNA, chemistry not given here)
Criterion met

Also check hsa-miR-16-5p: mature miRNA mimic, SEQ ID NO 7 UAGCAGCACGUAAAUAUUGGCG (listed as RNA, chemistry not given here)
Criterion not met

Also check hsa-miR-518b: mature miRNA mimic, SEQ ID NO 5 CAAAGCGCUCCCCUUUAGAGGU (listed as RNA, chemistry not given here)
Criterion met

Also check hsa-miR-129-5p: mature miRNA mimic, SEQ ID NO 4 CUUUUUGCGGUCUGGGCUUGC (listed as RNA, chemistry not given here)
Criterion met

Also check hsa-miR-200c-5p: mature miRNA mimic, SEQ ID NO 9 CGUCUUACCCAGCAGUGUUUGG (listed as RNA, chemistry not given here)
Criterion met

----------
system: A375Hu-R1 melanoma cell line; test: Anti-proliferative effect of miRNA mimics, MTS assay; type: cell-based, human; settings: 10 nM mimic, 72 hours after transfection
Answer each item with its documented A375Hu-R1 % Viability 10 nM.
Give the quantity in %, number only.

Query (substance): hsa-miR-200c-5p: mature miRNA mimic, SEQ ID NO 9 CGUCUUACCCAGCAGUGUUUGG (listed as RNA, chemistry not given here) ; field requested: A375Hu-R1 % Viability 10 nM
66

Also check hsa-miR-16-5p: mature miRNA mimic, SEQ ID NO 7 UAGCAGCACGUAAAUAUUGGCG (listed as RNA, chemistry not given here)
57

Also check hsa-miR-10b-3p: mature miRNA mimic, SEQ ID NO 2 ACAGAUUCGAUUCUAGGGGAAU (listed as RNA, chemistry not given here)
59

Also check hsa-miR-129-5p: mature miRNA mimic, SEQ ID NO 4 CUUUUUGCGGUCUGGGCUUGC (listed as RNA, chemistry not given here)
48

Also check hsa-miR-7-5p: mature miRNA mimic, SEQ ID NO 1 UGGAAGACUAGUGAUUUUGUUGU (listed as RNA, chemistry not given here)
68

Also check hsa-miR-3157-5p: mature miRNA mimic, SEQ ID NO 6 UUCAGCCAGGCUAGUGCAGUCU (listed as RNA, chemistry not given here)
67

Also check hsa-miR-497-5p: mature miRNA mimic, SEQ ID NO 8 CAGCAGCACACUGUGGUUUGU (listed as RNA, chemistry not given here)
57

Also check hsa-miR-96-5p: mature miRNA mimic, SEQ ID NO 3 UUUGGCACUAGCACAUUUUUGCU (listed as RNA, chemistry not given here)
69

Also check hsa-miR-182-3p: mature miRNA mimic, SEQ ID NO 10 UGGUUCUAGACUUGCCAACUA (listed as RNA, chemistry not given here)
59
